- System: IGROV1 ovarian
- assayNotes: NCI-60 one-dose screen, 48 h (100 = growth as untreated, 0 = no growth, -100 = all killed)
- measurementContext: 10 µM unless noted
About 83,000 compounds went through this panel and 20% of them were active in at least one assay; those are over-represented in the sample as a whole.
Readings of growth for the listed compounds
Could you give me the number in %? Just the number is fine.

# example entries with known answers
{"compound": "CCCCCCCC/C=C\\CCCCCCCCOc1ccccc1CC(=O)NCC[N+]1(C)CCOCC1", "growth [%]": 25.2}
{"compound": "N#Cc1ccccc1-c1ccc(Cn2c(-c3cscn3)nc3c(Cl)cccc32)cc1", "growth [%]": 89.1}
{"compound": "Nc1ccc(-c2nc3ccc4[nH]ncc4c3c3c2CCCC3)cc1F", "growth [%]": 10.9}
{"compound": "CC(=O)c1nn(-c2ccccc2)/c(=N/N=Cc2cn(-c3ccccc3)nc2-c2cc3ccccc3oc2=O)s1", "growth [%]": 107}
{"compound": "Nc1nc(N)c2c(n1)NC(c1cccc(Nc3ccnc4cc(C(F)(F)F)ccc34)c1)CC(c1ccc(F)cc1)=N2 (stereo not drawn)", "growth [%]": 50.5}
{"compound": "COc1ccc(-c2nn3c(-c4cc(F)c(Cl)cc4Cl)nnc3s2)cc1", "growth [%]": 40.6}
{"compound": "c1ccc(Cc2cccc[n+]2C(c2ccccc2)c2ccccc2)cc1", "growth [%]": 62.3}
{"compound": "O=C1c2cccc3cccc(c23)C(=O)N1N1C(=O)c2cccc3c(N4CCNCC4)ccc(c23)C1=O", "growth [%]": 91.2}

Query :: Please report the recorded growth for CCOC(=O)c1cnn(CC(O)CC)c1NC(=O)NCc1ccccc1C(F)(F)F (stereo not drawn) .
Result :: 94.9

Query :: Please report the recorded growth for `Cc1ccc(-c2nc3nc(-c4ccc(Cl)cc4)nc(N4CCCNCC4)c3o2)cc1` .
Result :: -83.8

Query :: Please report the recorded growth for `Cc1[nH]c(C(=O)Nc2nc3ccc(NC(=O)CCN)cc3s2)c(Cl)c1Cl` .
Result :: 68.4

Query :: Please report the recorded growth for `Nc1nc(Nc2cccnc2)sc1C(=O)c1ccccc1F` .
Result :: 21.3

Query :: Please report the recorded growth for `COC(=O)c1nc(-c2ccc(C)cc2)oc1Sc1ccc(C)cc1` .
Result :: 110

Query :: Please report the recorded growth for `CC(=O)Nc1c(I)c(NC(C)=O)c(I)c(C(=O)O)c1I` .
Result :: 108

Query :: Please report the recorded growth for CN(Cc1ccccc1)c1nc(Cl)c(C2CC(c3ccc(F)cc3)=NN2C=O)s1 (stereo not drawn) .
Result :: 89.4

###

Readings of growth for the listed compounds
- System: NCI-H23 lung
- assayNotes: NCI-60 one-dose screen, 48 h (100 = growth as untreated, 0 = no growth, -100 = all killed)
- measurementContext: 10 µM unless noted
Compounds without any hit were thinned out: in the full panel of roughly 83,000, 20% have a hit.
Could you give me the number in %? Just the number is fine.

{"compound": "O=C(NCCCN1CCCCC1)c1ccc(-c2nc3ccc4[nH]ncc4c3c3c2CCCC3)cc1", "unitLabel": "%", "growth": 49.3}
{"compound": "O=C1N=c2ccccc2=C1c1sc(=S)n(C2CC(=O)N(c3ccc(Cl)cc3)C2=O)c1O (stereo not given)", "unitLabel": "%", "growth": 99.2}
{"compound": "CCOC(=O)c1cnn(-c2ccc(S(N)(=O)=O)cc2)c1N", "unitLabel": "%", "growth": 95.5}
{"compound": "COc1ccc2nc3cc(Cl)ccc3c(NCCCNCCC(C)O)c2c1 (stereo not given)", "unitLabel": "%", "growth": -48.8}

Kindly consider the entry below.
Query :: Please report the recorded growth for `Cc1[nH]c(C(=O)Nc2nc3ccc(NC(=O)CCN)cc3s2)c(Cl)c1Cl` .
Result :: 37.4

Source of measurements: PubChem BioAssay (NCI)
